# System: AD38 cells
# METHOD_NOTES: Viability of AD38 cells (Promega CellTiter-Glo) at the end of compound treatment
# Format: cell-based
# ASSAY_CONTEXT: 10 μM compound, 6 days, luminescence normalized against DMSO control wells (controls being 100%)
ATTRIBUTE_MEASURED: AD38 Viability Normalized Result (CPAM/DMSO %) at 10 μM

[[record]]
compound = "O=C(NCCc1cccnc1)c1cc2c(cc1F)Sc1ccccc1C(=O)N2"
units_label = "%"
measured = 79

[[record]]
compound = "O=C(NCCc1cncs1)c1ccc2c(c1)NC(=O)c1cccc(F)c1S2"
units_label = "%"
measured = 85

[[record]]
compound = "CN(C)S(=O)(=O)c1ccc(CCNC(=O)c2ccc3c(c2)NC(=O)c2cc(F)ccc2S3)cc1"
units_label = "%"
measured = 79

[[record]]
compound = "O=C(NCc1cnco1)c1ccc2c(c1)NC(=O)c1c(F)cccc1S2"
units_label = "%"
measured = 95

[[record]]
compound = "O=C(NCCC12CC3CC(CC(C3)C1)C2)c1ccc2c(c1)NC(=O)c1ccccc1S2"
units_label = "%"
measured = 95

[[record]]
compound = "O=C(Nc1nccs1)c1ccc2c(c1)NC(=O)c1cc(F)ccc1S2"
units_label = "%"
measured = 109

[[record]]
compound = "O=C(NCCc1cncnc1)c1ccc2c(c1)NC(=O)c1ccccc1N2Cc1ccccc1"
units_label = "%"
measured = 98

[[record]]
compound = "O=C1Nc2c(cc(F)c(C(=O)NCCc3cncs3)c2F)Sc2ccccc21"
units_label = "%"
measured = 93

[[record]]
compound = "O=C(NCCc1ccc(-c2ccccc2)cc1)c1ccc2c(c1)NC(=O)c1cccc(F)c1S2"
units_label = "%"
measured = 88

[[record]]
compound = "O=C(NCc1cnccn1)c1ccc2c(c1)NC(=O)c1ccccc1S2"
units_label = "%"
measured = 112

[[record]]
compound = "O=C(NCCc1ccc(-c2ccccc2)cc1)c1ccc2c(c1)NC(=O)c1ccccc1N2Cc1ccccc1"
units_label = "%"
measured = 98

[[record]]
compound = "O=C(NCCc1ccc(-n2ccnn2)cc1)c1ccc2c(c1)NC(=O)c1ccccc1S2"
units_label = "%"
measured = 74

[[record]]
compound = "Cc1c(C(=O)Nc2cccc(-c3ccccc3)c2)ccc2c1NC(=O)c1ccccc1S2"
units_label = "%"
measured = 18

[[record]]
compound = "O=C(Nc1ncc(-c2ccccc2)s1)c1ccc2c(c1)NC(=O)c1cc(F)ccc1S2"
units_label = "%"
measured = 100

[[record]]
compound = "O=C(NCCc1cnco1)c1ccc2c(c1)NC(=O)c1ccccc1S2"
units_label = "%"
measured = 96

[[record]]
compound = "CN1c2ccc(C(=O)NCCc3ccc(-c4ccccc4)cc3)cc2NC(=O)c2ccccc21"
units_label = "%"
measured = 22

[[record]]
compound = "O=C(NC[C@@H](C(=O)O)c1ccccc1)c1ccc2c(c1)NC(=O)c1ccccc1S2"
units_label = "%"
measured = 107

[[record]]
compound = "O=C(NCCCCc1ccccc1)c1ccc2c(c1)NC(=O)c1ccccc1S2"
units_label = "%"
measured = 99

[[record]]
compound = "O=C(Nc1cccc(-c2ccccc2)c1)c1ccc2c(c1)NC(=O)c1cc(F)ccc1S2"
units_label = "%"
measured = 73

[[record]]
compound = "O=C(NCCC1CCCCC1)Nc1ccc2c(c1)NC(=O)c1ccccc1S2"
units_label = "%"
measured = 87

[[record]]
compound = "O=C(NCc1ccccc1F)c1ccc2c(c1)NC(=O)c1ccccc1S2"
units_label = "%"
measured = 124

[[record]]
compound = "O=C(NCCc1ccc(-c2ccccc2)cc1)c1ccc2c(c1)NC(=O)c1cc(F)ccc1S2"
units_label = "%"
measured = 94

[[record]]
compound = "CC(C)(C)OC(=O)C(Cc1cncnc1)NC(=O)c1ccc2c(c1)NC(=O)c1cc(F)ccc1S2 (stereo not shown)"
units_label = "%"
measured = 97

[[record]]
compound = "O=C1Nc2cc(S(=O)(=O)NCCc3ccccc3)ccc2Sc2ccccc21"
units_label = "%"
measured = 96

[[record]]
compound = "O=C(NCCc1ccc(-c2cnn[nH]2)cc1)c1ccc2c(c1)NC(=O)c1ccccc1S2"
units_label = "%"
measured = 102

[[record]]
compound = "O=C(NCCc1cccnn1)c1ccc2c(c1)NC(=O)c1ccccc1S2"
units_label = "%"
measured = 114

[[record]]
compound = "O=C(NCCC1CCCCC1)c1ccc2c(c1)Sc1ccccc1C(=O)N2"
units_label = "%"
measured = 109

[[record]]
compound = "O=C(NCc1ccccc1)c1ccc2c(c1)NC(=O)c1ccccc1S2(=O)=O"
units_label = "%"
measured = 111


* * *

# Tested on: AD38 cells
# METHOD_NOTES: Viability of AD38 cells (Promega CellTiter-Glo) at the end of compound treatment
# Type: cell-based
# ASSAY_CONTEXT: 10 μM compound, 6 days, luminescence normalized against DMSO control wells (controls being 100%)
# Description: Example 56: Assay Measuring Activity of Compounds on Viral Production in and on Viability of AD38 Cells AD38 cells were then re-suspended with 10 mL of Treatment Medium and counted. […] At the end of compound treatment period cell viability was assessed using a Promega CellTiter-Glo protocol. […]
Examples of molecules with documented AD38 Viability Normalized Result (CPAM/DMSO %) at 10 μM follow.
ATTRIBUTE_MEASURED: AD38 Viability Normalized Result (CPAM/DMSO %) at 10 μM

[[record]]
molecule = "CN(C)c1ccccc1CNC(=O)c1ccc2c(c1)NC(=O)c1ccccc1S2"
measured = "92%"

[[record]]
molecule = "O=C(NC[C@H](CO)c1ccccc1)c1ccc2c(c1)NC(=O)c1ccccc1S2"
measured = "105%"

[[record]]
molecule = "O=C(NCCc1ccc(-c2ccccc2)cc1)c1ccc2c(c1)NC(=O)c1ccc(F)cc1S2"
measured = "94%"

[[record]]
molecule = "O=C(Nc1ccccn1)c1ccc2c(c1)NC(=O)c1ccccc1S2"
measured = "102%"

[[record]]
molecule = "O=C(NCCc1cncnc1)c1cc2c(cc1F)Sc1ccccc1C(=O)N2"
measured = "91%"

[[record]]
molecule = "O=C(NCCc1cncs1)c1ccc2c(c1)NC(=O)c1ccccc1N2Cc1ccccc1"
measured = "85%"

[[record]]
molecule = "O=C(NCCc1cccnc1)c1ccc2c(c1)NC(=O)c1cc(F)ccc1S2"
measured = "63%"

[[record]]
molecule = "COC(=O)c1ccc(CCNC(=O)c2ccc3c(c2)NC(=O)c2ccccc2S3)cc1"
measured = "108%"

[[record]]
molecule = "NC(=O)c1ccc2c(c1)Sc1ccc(C(=O)NCCC3CCCCC3)cc1NC2=O"
measured = "89%"

[[record]]
molecule = "O=C(NC[C@H](O)c1ccccc1)c1ccc2c(c1)NC(=O)c1ccccc1S2"
measured = "94%"

[[record]]
molecule = "O=C(NCc1cccnc1)c1ccc2c(c1)NC(=O)c1ccccc1[S+]2[O-] (centres unmarked)"
measured = "85%"

[[record]]
molecule = "O=C(NCCCCc1ccncc1)c1ccc2c(c1)NC(=O)c1ccccc1S2"
measured = "118%"

[[record]]
molecule = "CN(C)S(=O)(=O)c1ccc(CCNC(=O)c2ccc3c(c2)NC(=O)c2ccccc2S3(=O)=O)cc1"
measured = "122%"

[[record]]
molecule = "O=C(NCCc1cncnc1)c1ccc2c(c1)NC(=O)c1ccc(F)cc1S2"
measured = "98%"


* * *

# System: HBV viral production in AD38 cells
# METHOD_NOTES: Viral load production in AD38 cells by quantitative PCR of the HBV core sequence in supernatant
# Type: cell-based
# ASSAY_CONTEXT: Hepatitis B virus, 144 h; 10 μM compound, 6 days at 37° C., viral load in supernatant compared against DMSO control wells; read-out: AD38 Viral Load (CpAM/DMSO %) at 10 μM
ATTRIBUTE_MEASURED: activity at 10 µM (%)

[[record]]
compound = "O=C1Nc2cc(S(=O)(=O)Nc3cncnc3)ccc2Sc2ccccc21 [Compound 1505]"
attribute_measured = "activity at 10 µM"
measured = 81

[[record]]
compound = "CN(C)S(=O)(=O)c1ccc(CCNC(=O)c2cc3c(cc2F)Sc2ccccc2C(=O)N3)cc1 [Compound 1507]"
attribute_measured = "activity at 10 µM"
measured = 11

[[record]]
compound = "O=C(NCCc1cc[nH]n1)c1ccc2c(c1)NC(=O)c1ccccc1S2 [Compound 1270]"
attribute_measured = "activity at 10 µM"
measured = 1

[[record]]
compound = "O=C1Nc2c(cc(F)c(C(=O)NCCc3cncs3)c2F)Sc2ccccc21 [Compound 1563]"
attribute_measured = "activity at 10 µM"
measured = 41

[[record]]
compound = "O=C(NCc1ccccc1)c1ccc2c(c1)NC(=O)c1ccccc1S2 [Compound 1107]"
attribute_measured = "activity at 10 µM"
measured = 2

[[record]]
compound = "O=C(Nc1cccc(-c2ccccc2)c1)c1ccc2c(c1)NC(=O)c1cccc(F)c1S2 [Compound 1410]"
attribute_measured = "activity at 10 µM"
measured = 35

[[record]]
compound = "O=C(NCC1CCC1)c1ccc2c(c1)NC(=O)c1ccccc1S2 [Compound 1174]"
attribute_measured = "activity at 10 µM"
measured = 35

[[record]]
compound = "O=C(NCc1cncnc1)c1ccc2c(c1)NC(=O)c1ccccc1O2 [Compound 1595]"
attribute_measured = "activity at 10 µM"
measured = 3

[[record]]
compound = "NC(=O)c1ccc2c(c1)NC(=O)c1ccccc1[S+]2[O-] (centres unmarked) [Compound 1575]"
attribute_measured = "activity at 10 µM"
measured = 90

[[record]]
compound = "CC(=O)N(CCc1ccccc1)Cc1ccc2c(c1)NC(=O)c1ccccc1S2 [Compound 1367]"
attribute_measured = "activity at 10 µM"
measured = 33

[[record]]
compound = "O=C(Nc1cccc(-c2ccccc2)c1)c1ccc2c(c1)NC(=O)c1c(F)cccc1S2 [Compound 1472]"
attribute_measured = "activity at 10 µM"
measured = 37

[[record]]
compound = "Cc1cccc(CNC(=O)c2ccc3c(c2)NC(=O)c2ccccc2S3)c1 [Compound 1163]"
attribute_measured = "activity at 10 µM"
measured = 3

[[record]]
compound = "O=C(O)c1cccc(-c2cccc(NC(=O)c3ccc4c(c3)NC(=O)c3cc(F)ccc3S4)c2)c1 [Compound 1421]"
attribute_measured = "activity at 10 µM"
measured = 78

[[record]]
compound = "O=C(NCCC1CCC(F)(F)CC1)c1ccc2c(c1)NC(=O)c1ccccc1S2 [Compound 1216]"
attribute_measured = "activity at 10 µM"
measured = 1


Attribution: patent US10183936B2
